# TGT: Beta-secretase 1 (Homo sapiens)
# Sequence (P56817 whole entry): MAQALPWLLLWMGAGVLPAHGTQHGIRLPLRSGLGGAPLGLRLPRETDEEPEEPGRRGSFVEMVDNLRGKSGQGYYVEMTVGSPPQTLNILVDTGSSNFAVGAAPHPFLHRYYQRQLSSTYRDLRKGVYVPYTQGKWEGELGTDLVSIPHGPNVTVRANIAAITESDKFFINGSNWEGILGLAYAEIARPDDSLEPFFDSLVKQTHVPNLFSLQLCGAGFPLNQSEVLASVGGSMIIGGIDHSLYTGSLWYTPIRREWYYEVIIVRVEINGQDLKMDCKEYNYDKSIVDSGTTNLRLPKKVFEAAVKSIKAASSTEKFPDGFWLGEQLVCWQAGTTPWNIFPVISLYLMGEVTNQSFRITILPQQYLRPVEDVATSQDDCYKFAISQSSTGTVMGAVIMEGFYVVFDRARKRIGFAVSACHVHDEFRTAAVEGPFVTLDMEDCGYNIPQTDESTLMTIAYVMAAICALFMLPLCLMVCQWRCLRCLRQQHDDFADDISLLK
# PROTOCOL TEXT: Inhibition of recombinant BACE-1 (unknown origin) expressed in Escherichia coli measured for 5 to 30 mins by spectrofluorometric analysis
# MEASUREMENT SETUP: read-out: Ki(app)
PROPERTY LABEL: Ki (µM)
Give bare numbers, in µM.

Query: Requested read-out: Ki. Entry: C=C1C(=O)C(C)=C(C)C1(C)C
Result: 416

====

# TGT: Beta-secretase 1 (Homo sapiens)
# PROTOCOL TEXT: Inhibition of BACE-1 in human SH-SY5Y cells expressing wild-type APP assessed as reduction in amyloid beta-40 production after 16 hrs by sandwich ELISA
PROPERTY LABEL: EC50 (µM)
Answers are plain numbers, in µM.

Query: Fill in the blank: the reported EC50 of C=C1C(=O)C(C)=C(C)C1(C)C is ____.
Result: 217
